# experimental system: POLγA:G848S (Homo sapiens, UniProt P54098, G848S)
# assay procedure: DNA polymerization assay, POLγA:G848S mutant
# Format: biochemical
# test parameters: stimulation of polymerase activity, primed M13mp18 ssDNA, 37° C. 2 hours; read-out: G848S AC50
Give AC50 for every item shown.

AC50 for Cc1cc(S(=O)(=O)Nc2csc(C(=O)N(CC(N)=O)C3CCCCC3)n2)c(C)cc1Cl [Example 179] ? > 10 µM

Entry O=S(=O)(Nc1csc(-c2ccccc2)n1)c1ccc2c(c1)CCO2 [Example 152] please 6 µM

Entry Cc1cc(S(=O)(=O)Nc2cccc(C(=O)N3C[C@H](C)[C@@H](N)C3)c2)c(C)cc1Cl [Example 108] please > 100 µM

Entry Cc1cc(S(=O)(=O)Nc2csc(-c3ccccc3)n2)ccc1Cl [Example 148] please > 100 µM

----------
# experimental system: POLγA:Y955C (Homo sapiens, UniProt P54098, Y955C)
# Sequence (P54098 1-1239 Y955C): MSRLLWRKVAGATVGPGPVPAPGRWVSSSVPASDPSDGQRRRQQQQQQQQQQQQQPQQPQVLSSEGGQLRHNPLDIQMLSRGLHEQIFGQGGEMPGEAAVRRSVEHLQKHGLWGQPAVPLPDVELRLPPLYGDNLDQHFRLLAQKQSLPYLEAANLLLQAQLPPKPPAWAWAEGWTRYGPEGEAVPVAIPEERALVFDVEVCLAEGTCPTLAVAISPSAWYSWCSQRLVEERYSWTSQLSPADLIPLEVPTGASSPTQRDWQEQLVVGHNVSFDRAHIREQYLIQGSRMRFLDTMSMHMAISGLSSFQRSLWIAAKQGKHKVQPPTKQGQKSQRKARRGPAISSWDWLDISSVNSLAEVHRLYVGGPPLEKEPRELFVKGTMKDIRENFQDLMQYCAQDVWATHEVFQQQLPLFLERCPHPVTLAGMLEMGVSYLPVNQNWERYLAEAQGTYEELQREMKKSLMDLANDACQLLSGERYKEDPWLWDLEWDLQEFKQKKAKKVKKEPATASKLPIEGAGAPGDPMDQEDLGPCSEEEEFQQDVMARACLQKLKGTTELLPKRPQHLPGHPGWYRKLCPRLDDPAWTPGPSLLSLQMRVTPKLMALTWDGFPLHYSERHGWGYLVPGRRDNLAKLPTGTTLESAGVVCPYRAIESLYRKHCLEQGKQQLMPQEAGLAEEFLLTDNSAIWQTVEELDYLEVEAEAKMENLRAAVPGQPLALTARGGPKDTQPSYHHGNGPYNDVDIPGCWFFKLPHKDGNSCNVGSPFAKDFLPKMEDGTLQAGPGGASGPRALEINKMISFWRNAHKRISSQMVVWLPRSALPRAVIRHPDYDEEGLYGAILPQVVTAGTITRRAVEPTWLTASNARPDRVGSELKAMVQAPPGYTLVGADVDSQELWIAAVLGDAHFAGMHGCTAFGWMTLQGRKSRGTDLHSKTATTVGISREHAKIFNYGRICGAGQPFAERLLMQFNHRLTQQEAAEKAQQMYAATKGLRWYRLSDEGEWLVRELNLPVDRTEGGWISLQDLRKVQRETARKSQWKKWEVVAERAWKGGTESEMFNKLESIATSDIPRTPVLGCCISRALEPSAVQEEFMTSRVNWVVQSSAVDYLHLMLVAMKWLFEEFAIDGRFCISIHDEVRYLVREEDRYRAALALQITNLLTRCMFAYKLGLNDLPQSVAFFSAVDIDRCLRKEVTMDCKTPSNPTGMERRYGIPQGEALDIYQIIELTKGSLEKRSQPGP
# Sequence (Q9UHN1 1-485 partner): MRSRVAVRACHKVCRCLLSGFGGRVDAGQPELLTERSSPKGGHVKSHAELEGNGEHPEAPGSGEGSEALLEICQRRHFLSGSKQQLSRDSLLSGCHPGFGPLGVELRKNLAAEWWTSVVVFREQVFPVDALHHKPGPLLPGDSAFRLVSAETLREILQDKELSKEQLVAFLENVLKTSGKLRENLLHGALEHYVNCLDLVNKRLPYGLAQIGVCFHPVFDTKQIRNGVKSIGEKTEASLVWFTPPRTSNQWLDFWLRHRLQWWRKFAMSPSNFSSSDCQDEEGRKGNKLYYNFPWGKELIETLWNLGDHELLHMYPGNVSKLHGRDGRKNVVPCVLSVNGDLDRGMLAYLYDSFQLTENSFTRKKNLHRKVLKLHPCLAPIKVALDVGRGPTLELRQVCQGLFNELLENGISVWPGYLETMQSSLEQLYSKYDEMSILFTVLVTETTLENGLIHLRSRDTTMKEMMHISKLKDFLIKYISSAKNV
# assay procedure: DNA polymerization assay, POLγA:Y955C mutant
# Assay type: biochemical
# test parameters: stimulation of polymerase activity, primed M13mp18 ssDNA, 37° C. 2 hours
# Experimental: DNA Polymerization Assay to Monitor Effects on Human Wildtype POLγ and Four Disease-Causing Mutant Variants of Human POLγ. The ability of small molecules to stimulate the polymerase activity of POLγ was analyzed in a quantitative fluorescence SYBR Green I assay with fluorescence intensity (FI) readout. […] The assay was performed in the 384-well plate format. Upon addition of compounds, changes in double-stranded DNA synthesis activity can be monitored by following effects on fluorescent intensity. […]
assay metric: AC50 (nM)
Numbers only; they are read as nM.

AC50 for Cc1cc2cc(NS(=O)(=O)c3cc(C)c(Cl)cc3C)ccc2[nH]1 ? 2000

Entry Cc1nc2ccc(NS(=O)(=O)c3cc(C)c(Cl)cc3C)cc2s1 please 800

Entry Cc1cc(S(=O)(=O)Nc2cccc(-c3ncc(CN(C)C)s3)c2)c(C)cc1Cl please 6000

Recorded values, source patent US20260138961A1.
